As shown below, each of these compounds has a reported TGI value.
System: OVCAR-5 ovarian
Assay: NCI tumour cell line growth inhibition, 48 h

Please review the following examples before continuing.
INSERT INTO assay_data (compound, test_value) VALUES
  ('COc1ccc(NC(=O)C(=O)NNC(=O)c2sc(NNC(C)=O)nc2C)c([N+](=O)[O-])c1', '> 100 µM'),
  ('Cc1cc(Cc2cc(C)c(NC(=O)C(=O)C3C(=O)NC(=S)NC3=O)c(C(C)C)c2)cc(C(C)C)c1NC(=O)C(=O)C1C(=O)NC(=S)NC1=O', '> 100 µM'),
  ('Cn1c(N2CCCC2)c(C=O)c(=O)n(C)c1=O', '> 100 µM'),
  ('O=C(CC/C(C/C(=N/O)c1ccc(F)cc1)=N/O)N(Cc1ccccc1)Cc1ccccc1', '> 100 µM'),
  ('Nc1c(C(=O)c2cccc(OCCN3CCOCC3)c2)cnn1-c1ccc(F)cc1', '> 25 µM');

Request: Using the record for C=C(CN1CCN(c2cccc(C(F)(F)F)c2)CC1)c1ccc(C(=O)Nc2ccccc2N)cc1 , report its TGI.
Result: 26.4 µM

Request: Look at this compound and give its reported TGI. O=C(Nc1cnn2ccc(N3CCC[C@@H]3c3cc(F)ccc3F)nc12)N1CC[C@H](O)C1
Result: > 100 µM

Request: Dear colleague, I am looking for the recorded TGI of the following compound: O=c1c2cc(Br)ccc2oc2nc3n(c(=O)c12)CCCS3
Result: > 100 µM

Request: Entry O=c1nc2n(cc1/C=C\Br)C1CC(O)C(CO2)O1 (stereo not given) has what TGI?
Result: > 100 µM

Request: So what's the measured TGI for this one? Oc1ccc2c(c1)OCC(O)(c1ccccc1O)C2 (stereo not given)
Result: > 100 µM

Request: If you can, please state the reported TGI value of NC1CC2C3CCC2C1C3=O (stereo not given) .
Result: > 100 µM

Request: Entry O=C(CCCCCCCCC(=O)NN1C(=O)/C(=C\c2ccc(O)c(O)c2)SC1c1c(O)ccc2ccccc12)NN1C(=O)C(=Cc2ccc(O)c(O)c2)SC1c1c(O)ccc2ccccc12 (stereo not given) has what TGI?
Result: > 100 µM

Request: Consider the compound Cc1cc(S(=O)(=O)Nc2nc3ccsc3c(=O)n2Cc2ccco2)c(S)cc1Cl and give its measured TGI.
Result: > 100 µM

Request: What measured TGI goes with CO/N=C1\CCC2(O)C3Cc4ccc(O)c5c4C2(CCN3CC2CC2)[C@H]1O5 (stereo not given in full) ?
Result: > 100 µM

Request: TGI for CCOC(=O)/C=C1\SC(=Nc2ccc(C#N)cc2)N(CCN2C(=O)/C(=C/C(=O)OCC)SC2=Nc2ccc(C#N)cc2)C1=O ?
Result: 30.8 µM

Request: Return reported TGI; argument: C=CC1OC(CCCOC(=O)C(C)(C)C)O[C@@H]1CC (stereo not given in full)
Result: > 100 µM

Request: Entry Cc1cc(C)c2c(n1)S(=O)(=O)N(CCCN1CCN(c3cccc(C(F)(F)F)c3)CC1)/C(=C(\O)c1ccccc1)C2=O : reported TGI = ?
Result: 39 µM

Request: So what does the record say about TGI for CC[C@@]1(O)C(=O)OCc2c1cc1n(c2=O)Cc2cc3cc(OC)ccc3nc2-1 ?
Result: 0.562 µM
